system: MCF7; assay: HRG-induced Akt activation (dPAkt = log2 pAkt/Akt HRG-stimulated minus log2 pAkt/Akt basal) (log2 ratio difference); higher = stronger HRG-induced Akt(T308) phosphorylation; conditions: miRNA mimic concentration 10 nM; time after transfection 72 h; heregulin 10 ng/ml; stimulation time 1 h
Listed sequences paired with reported HRG-induced Akt activation (log2)
# respond with the number and nothing more

Example sequences with recorded HRG-induced Akt activation (log2):
- seq: "GUGGGCGGGGGCAGGUGUGUG"
  HRG-induced Akt activation (log2): 1.13
- seq: "GAGUGCCUUCUUUUGGAGCGUU"
  HRG-induced Akt activation (log2): 1.04
- seq: "CGCAUCCCCUAGGGCAUUGGUGU"
  HRG-induced Akt activation (log2): 2.62
- seq: "AAGUGCUGUCAUAGCUGAGGUC"
  HRG-induced Akt activation (log2): 0.879

stdin: // query HRG-induced Akt activation (log2) value for entry UGGGCGUAUCUGUAUGCUA
stdout: 1.83

stdin: // query HRG-induced Akt activation (log2) value for entry UCCCACGUUGUGGCCCAGCAG
stdout: 1.44

stdin: // query HRG-induced Akt activation (log2) value for entry UCGUGCAUCCCUUUAGAGUGUU
stdout: 1.6

###

Listed sequences paired with reported HRG-induced Akt activation (log2)
system: MCF7; test: HRG-induced Akt activation (dPAkt = log2 pAkt/Akt HRG-stimulated minus log2 pAkt/Akt basal) (log2 ratio difference); higher = stronger HRG-induced Akt(T308) phosphorylation; details: miRNA mimic concentration 10 nM; time after transfection 72 h; heregulin 10 ng/ml; stimulation time 1 h
# respond with the number and nothing more

Example sequences with recorded HRG-induced Akt activation (log2):
- seq: "CUGUAAUAUAAAUUUAAUUUAUU"
  HRG-induced Akt activation (log2): 1.42
- seq: "AGAGGAUACCCUUUGUAUGUU"
  HRG-induced Akt activation (log2): 1.23
- seq: "CUCUAGAGGGAAGCGCUUUCUG"
  HRG-induced Akt activation (log2): 1.51
- seq: "AAACUCUACUUGUCCUUCUGAGU"
  HRG-induced Akt activation (log2): 0.945
- seq: "CAGGAUGUGGUCAAGUGUUGUU"
  HRG-induced Akt activation (log2): 1.41
- seq: "UGGGUUCCUGGCAUGCUGAUUU"
  HRG-induced Akt activation (log2): 1.27
- seq: "UGGGUUUACGUUGGGAGAACU"
  HRG-induced Akt activation (log2): 1.44
- seq: "CUUGGUUCAGGGAGGGUCCCCA"
  HRG-induced Akt activation (log2): 1.58

stdin: // query HRG-induced Akt activation (log2) value for entry CAAGUCUUAUUUGAGCACCUGUU
stdout: 1.94

stdin: // query HRG-induced Akt activation (log2) value for entry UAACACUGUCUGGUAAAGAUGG
stdout: 0.763

stdin: // query HRG-induced Akt activation (log2) value for entry GCAGUCCAUGGGCAUAUACAC
stdout: 1.66

stdin: // query HRG-induced Akt activation (log2) value for entry AACUGGAUCAAUUAUAGGAGUG
stdout: 1.79

stdin: // query HRG-induced Akt activation (log2) value for entry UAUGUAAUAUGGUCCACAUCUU
stdout: 2.01

stdin: // query HRG-induced Akt activation (log2) value for entry CAGUGCAAUAGUAUUGUCAAAGC
stdout: 1.02

stdin: // query HRG-induced Akt activation (log2) value for entry GAAGGCGCUUCCCUUUAGAGCG
stdout: 1.1

###

test system: MCF7; test: HRG-induced Akt activation (dPAkt = log2 pAkt/Akt HRG-stimulated minus log2 pAkt/Akt basal) (log2 ratio difference); higher = stronger HRG-induced Akt(T308) phosphorylation; details: miRNA mimic concentration 10 nM; time after transfection 72 h; heregulin 10 ng/ml; stimulation time 1 h
observed.property: HRG-induced Akt activation (log2)
# respond with the number and nothing more

Example sequences with recorded HRG-induced Akt activation (log2):
- seq: "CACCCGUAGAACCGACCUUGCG"
  experimental.system: "MCF7"
  HRG-induced Akt activation (log2): 1.4
- seq: "UAUGUGGGAUGGUAAACCGCUU"
  experimental.system: "MCF7"
  HRG-induced Akt activation (log2): 2.19
- seq: "AUCAACAGACAUUAAUUGGGCGC"
  experimental.system: "MCF7"
  HRG-induced Akt activation (log2): 2.3
- seq: "GGUGGCCCGGCCGUGCCUGAGG"
  experimental.system: "MCF7"
  HRG-induced Akt activation (log2): 1.55
- seq: "ACAGGUGAGGUUCUUGGGAGCC"
  experimental.system: "MCF7"
  HRG-induced Akt activation (log2): 1.32

stdin: // query HRG-induced Akt activation (log2) value for entry UCGUGGCCUGGUCUCCAUUAU
stdout: 1.03

stdin: // query HRG-induced Akt activation (log2) value for entry CAAAGUGCUUACAGUGCAGGUAG
stdout: 1.23

stdin: // query HRG-induced Akt activation (log2) value for entry CUCCUGACUCCAGGUCCUGUGU
stdout: 1.43

###

test system: MCF7; experiment: HRG-induced Akt activation (dPAkt = log2 pAkt/Akt HRG-stimulated minus log2 pAkt/Akt basal) (log2 ratio difference); higher = stronger HRG-induced Akt(T308) phosphorylation; settings: miRNA mimic concentration 10 nM; time after transfection 72 h; heregulin 10 ng/ml; stimulation time 1 h
Listed sequences paired with reported HRG-induced Akt activation (log2)

stdin: Give recorded HRG-induced Akt activation (log2) with MCF7 for the following sequence: GCGACCCAUACUUGGUUUCAG
stdout: 1.44

###

Listed sequences paired with reported HRG-induced Akt activation (log2)
system: MCF7; test: HRG-induced Akt activation (dPAkt = log2 pAkt/Akt HRG-stimulated minus log2 pAkt/Akt basal) (log2 ratio difference); higher = stronger HRG-induced Akt(T308) phosphorylation; conditions: miRNA mimic concentration 10 nM; time after transfection 72 h; heregulin 10 ng/ml; stimulation time 1 h
# respond with the number and nothing more

- seq: "GCUGCGCUUGGAUUUCGUCCCC"
  HRG-induced Akt activation (log2): 1.62

stdin: // query HRG-induced Akt activation (log2) value for entry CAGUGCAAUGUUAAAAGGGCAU
stdout: 0.895

stdin: // query HRG-induced Akt activation (log2) value for entry GUGAGGACUCGGGAGGUGG
stdout: 1.19

stdin: // query HRG-induced Akt activation (log2) value for entry AGUUUUGCAGGUUUGCAUUUCA
stdout: 1.13

stdin: // query HRG-induced Akt activation (log2) value for entry UAACUGGUUGAACAACUGAACC
stdout: 1.93

stdin: // query HRG-induced Akt activation (log2) value for entry AAGUGCUUCCUUUUAGAGGGUU
stdout: 0.817

###

test system: MCF7; assay: HRG-induced Akt activation (dPAkt = log2 pAkt/Akt HRG-stimulated minus log2 pAkt/Akt basal) (log2 ratio difference); higher = stronger HRG-induced Akt(T308) phosphorylation; settings: miRNA mimic concentration 10 nM; time after transfection 72 h; heregulin 10 ng/ml; stimulation time 1 h
Listed sequences paired with reported HRG-induced Akt activation (log2)
# respond with the number and nothing more

Example sequences with recorded HRG-induced Akt activation (log2):
- seq: "AAAAUGGUUCCCUUUAGAGUGU"
  experimental.system: "MCF7"
  HRG-induced Akt activation (log2): 1.21
- seq: "AAUCAUACACGGUUGACCUAUU"
  experimental.system: "MCF7"
  HRG-induced Akt activation (log2): 1.41
- seq: "CAUCUUCCAGUACAGUGUUGGA"
  experimental.system: "MCF7"
  HRG-induced Akt activation (log2): 1.73

Shift focus to the following entry.
stdin: // query HRG-induced Akt activation (log2) value for entry CAGCAGCACACUGUGGUUUGU
stdout: 1.54

###

tested on: MCF7; experiment: HRG-induced Akt activation (dPAkt = log2 pAkt/Akt HRG-stimulated minus log2 pAkt/Akt basal) (log2 ratio difference); higher = stronger HRG-induced Akt(T308) phosphorylation; settings: miRNA mimic concentration 10 nM; time after transfection 72 h; heregulin 10 ng/ml; stimulation time 1 h
Listed sequences paired with reported HRG-induced Akt activation (log2)
# respond with the number and nothing more

Example sequences with recorded HRG-induced Akt activation (log2):
- seq: "CCUCCCACACCCAAGGCUUGCA"
  HRG-induced Akt activation (log2): 1.37
- seq: "AAUCAUACAGGGACAUCCAGUU"
  HRG-induced Akt activation (log2): 1.86
- seq: "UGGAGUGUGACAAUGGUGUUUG"
  HRG-induced Akt activation (log2): 2.53

stdin: // query HRG-induced Akt activation (log2) value for entry GUGUUAAUUAAACCUCUAUUUAC
stdout: 1.76

stdin: // query HRG-induced Akt activation (log2) value for entry UGUAAACAUCCUACACUCUCAGC
stdout: 0.867

stdin: // query HRG-induced Akt activation (log2) value for entry UCCAGCAUCAGUGAUUUUGUUG
stdout: 1.77

stdin: // query HRG-induced Akt activation (log2) value for entry UAAGUGCUUCCAUGUUUCAGUGG
stdout: 0.968

stdin: // query HRG-induced Akt activation (log2) value for entry UCCCUGAGACCCUAACUUGUGA
stdout: 1.35
